Measured GI50 accompanies every entry in the list below.
system: SNB-75 CNS; test: NCI tumour cell line growth inhibition, 48 h

Reference set (5 entries):
1. Cc1cc2nc3cc(C)c(N)cc3[n+](-c3ccccc3)c2cc1N :: 2.59 µM
2. Cc1ccc(C2=Nc3c(N)ncnc3NC(c3ccc4c(c3)OCO4)C2)cc1 (stereo not drawn) :: 4.55 µM
3. COc1cc(N2CCN(C(C)C)CC2)ccc1Nc1nc(Nc2cccc(F)c2C(=O)O)c2cc[nH]c2n1 :: > 25 µM
4. c1cncc(C2Nc3cccc4cccc(c34)N2)c1 :: 17.9 µM
5. N=C(N)c1ccc(-c2ccc(-c3cccs3)s2)s1 :: 1.77 µM

Q: Bench note: what GI50 did CC(=O)C1=C(C)N(C)C2(O)C=CC(=O)C3=C(O)c4ccccc4C(=O)C312 (stereo not drawn) show?
Result: 19.9 µM

Q: Follow-up entry: C[C@]1(Cn2ccnn2)C(C(=O)O)N2C(=O)CC2S1(=O)=O (stereo partly drawn)
Result: > 100 µM

Q: Follow-up entry: OCCNCCCOc1ccc2ncnc(Nc3ccc(Oc4cccc(C(F)(F)F)c4)c(Cl)c3)c2c1
Result: 1.48 µM

====

Measured GI50 accompanies every entry in the list below.
test system: SK-MEL-28 melanoma; test: NCI tumour cell line growth inhibition, 48 h

Reference set (3 entries):
1) CCCCNC(=O)Oc1ccc(/C(=C(/C)Cc2ccc(OC)cc2)c2ccc(OCCN3CCCC3)cc2)cc1 :: 1.83 µM
2) O=[n+]1c2ccccc2n([O-])c2cc(Cl)ccc21 :: 16.4 µM
3) C[CH2][Ge]([CH2]C)([CH2]C)[O]C(=O)CCC(=O)[O][Ge]([CH2]C)([CH2]C)[CH2]C :: > 100 µM

Q: Under SK-MEL-28 melanoma: GI50 value of C[C@]1(Cn2ccnn2)C(C(=O)O)N2C(=O)CC2S1(=O)=O (stereo partly specified) ?
Result: > 100 µM

Q: Follow-up entry: CCOC(=O)c1c(C)nc2c(c1N)CC(=O)N2CCc1ccccc1
Result: 2.35 µM

Q: Follow-up entry: CCCNC(=O)c1ccc(Cl)cc1Cl
Result: > 100 µM

====

Measured TGI accompanies every entry in the list below.
system: SN12C renal; experiment: NCI tumour cell line growth inhibition, 48 h
A number alone suffices; assume µM.

Reference set (3 entries):
1. Cc1cc(=O)[nH]c(NNC(C#N)c2c(O)ccc3ccccc23)n1 (stereo unspecified) :: 38.2
2. C[C@]12CC[C@H]3[C@@H](C[C@@H]4SC(Nc5ccccc5)=N[C@@]45CC(O)CC[C@]35C)[C@@H]1CCC2O (stereo partly specified) :: 3.28
3. NC(=O)/C=c1/c2ccccc2n2nc3ccccc3c12 :: 40.2

Q: Bench note: what TGI did O=C(O)CCc1c2ccc(=O)c(O)c-2oc2c(O)c(O)ccc12 show?
Result: 34.8

Q: Follow-up entry: COC(=O)C(CBr)CBr
Result: 9.28

====

tested on: EKVX NSCLC; assay: NCI tumour cell line growth inhibition, 48 h
measurement_type: TGI

Reference set (6 entries):
1. CC1Cc2cc(O)c(O)cc2-c2cc(O)c(O)cc2CC1C (stereo unspecified) :: 96.2 µM
2. Cc1ccc(/C=C2\CCCC(CN(C)C)C2=O)cc1 (stereo unspecified) :: 31.5 µM
3. O=c1oc2ccc(Cl)cc2cc1-c1cn2ccccc2n1 :: > 100 µM
4. O=S1(=O)CCCS(=O)(=O)C(c2ccccc2)=C1c1ccccc1 :: > 100 µM
5. O=C1NC(N2CCCCC2)=N/C1=C\c1ccccc1O :: > 100 µM
6. CC(C)(C)c1cc(OCc2nnc3sc(=S)[nH]n23)c(Cl)cc1OCc1nnc2sc(=S)[nH]n12 :: 85.4 µM

Q: Bench note: what TGI did Nc1nc(N)c2c(n1)NC(c1ccccc1)C1CCc3ccccc3C1=N2 (stereo unspecified) show?
Result: 15.1 µM

Q: Follow-up entry: CN[C@@H](C)[C@H](N)c1ccccc1
Result: > 100 µM

Q: Follow-up entry: C[C@]12CC[C@H]3[C@@H](C[C@@H]4SC(Nc5ccccc5)=N[C@@]45CC(O)CC[C@]35C)[C@@H]1CCC2O (stereo partly specified)
Result: 9.26 µM

Q: Follow-up entry: N#Cc1c(Cl)nc2ccccc2c1N=[N+]=[N-]
Result: 5.53 µM

Q: Follow-up entry: Cc1ccc(C(SCC(N)C(=O)O)(c2ccccc2)c2ccccc2)cc1 (stereo unspecified)
Result: > 100 µM

====

test system: HOP-92 NSCLC; assay: NCI tumour cell line growth inhibition, 48 h
Measured TGI accompanies every entry in the list below.
A number alone suffices; assume µM.

1) C=CC/C(=C\COP(=O)(OCc1ccc([N+](=O)[O-])o1)N(C)CCCCCl)CC/C=C(\C)CCC=C(C)C (stereo not given) :: 27.6
2) C=C(C)C(O)C(O)C[C@@H](C)C1CC[C@]23C[C@]12CCC1[C@@]2(C)CCC(OC(C)=O)C(C)(C)C2CC(OC2OC(CO)C(O)C(O)C2O)[C@]13C (stereo not given in full) :: 25.7
3) C=C1C(=O)OC2CC(=C)C3CC=C(C)C3CC12 (stereo not given) :: 28.7
4) COC(=O)/C=C1/SC(N2N=C(c3cccs3)CC2c2ccc(F)cc2)=NC1=O (stereo not given) :: 5.67
5) COc1ccc2c(c1)CC1c3c(ccc(OC)c3O)CC2N1C (stereo not given) :: 70.9
6) COc1ccc(N=Nc2c(C)c(C#N)c(=S)n(C3OC(CO)C(O)C(O)C3O)c2C)cc1 (stereo not given) :: 64.8
7) CC1=CC(C)C(C)N(CCNS(=O)(=O)c2ccc(C)cc2)c2ccccc21 (stereo not given) :: 36.1
8) CCN(CC)CCN(Cc1ccc(F)cc1)c1ccc(CO)c(Cl)c1 :: 19.3
9) Cc1[nH]c(-c2nc3ccccc3[nH]2)c(C)c1C(=O)NC(C)C1CCCCC1 (stereo not given) :: 25.3
10) COC(=O)c1c[nH]c2c1-c1cc(C(=O)OCc3ccccc3)n(S(=O)(=O)c3ccc(C)cc3)c1C(=O)C2=O :: 1.29

Q: Under HOP-92 NSCLC: TGI value of N#Cc1c(Cl)nc2ccccc2c1N=[N+]=[N-] ?
Result: 3.32

Q: Follow-up entry: CC1(C)C(=O)/C=C\C(=O)C(C)(C)C(=O)/C=C\C(=O)C(C)(C)C(=O)/C=C\C(=O)C(C)(C)C(=O)/C=C\C1=O
Result: 29.1

Q: Follow-up entry: CC(C)(C)c1cc(OCc2nnc3sc(=S)[nH]n23)c(Cl)cc1OCc1nnc2sc(=S)[nH]n12
Result: 53.3

Q: Follow-up entry: Clc1ccc2nc(-c3ccccc3)nc(Cl)c2c1
Result: 50.3

Q: Follow-up entry: CCOC(=O)c1oc2ccc([N+](=O)[O-])c3c2c1CCC3
Result: 71

Q: Follow-up entry: CCCCN(CCCC)CCC(O)c1cc2c(Cl)cc(Cl)cc2c2cc(C(F)(F)F)ccc12 (stereo not given)
Result: 10.6

Q: Follow-up entry: CC1Cc2cc(O)c(O)cc2-c2cc(O)c(O)cc2CC1C (stereo not given)
Result: 46.7

====

system: SK-MEL-5 melanoma; assay: NCI tumour cell line growth inhibition, 48 h
Measured TGI accompanies every entry in the list below.
A number alone suffices; assume µM.

Q: Under SK-MEL-5 melanoma: TGI value of Oc1cccc(/C=N/Nc2nnc(N/N=C/c3cccc(O)c3)c3ccccc23)c1 ?
Result: 8.86

Q: Follow-up entry: COc1cc(-c2n/c(=C\c3c(O)[nH]c4cc(Cl)ccc34)cc3c2=Nc2ccccc2-3)cc(OC)c1OC
Result: 23

Q: Follow-up entry: O=c1c2cc(I)ccc2nc(SCc2n[nH]c(=S)o2)n1Cc1ccccc1
Result: 26.2

Q: Follow-up entry: O=C1c2ccccc2CC12Cc1ccccc1C2
Result: 56.1

Q: Follow-up entry: Cc1[nH]c(-c2nc3ccccc3[nH]2)c(C)c1C(=O)NC(C)C1CCCCC1 (stereo not drawn)
Result: 22.3

Q: Follow-up entry: O=C(Cc1nc2ncccc2[nH]c1=O)c1c[nH]c2ccccc12
Result: 73

Q: Follow-up entry: CCN(CC)CCN(Cc1ccc(F)cc1)c1ccc(CO)c(Cl)c1
Result: 30.1

Q: Follow-up entry: C[C@]12CC[C@H]3[C@@H](C[C@@H]4SC(Nc5ccccc5)=N[C@@]45CC(O)CC[C@]35C)[C@@H]1CCC2O (stereo partly drawn)
Result: 3.41

====

Measured TGI accompanies every entry in the list below.
system: PC-3 prostate; assay: NCI tumour cell line growth inhibition, 48 h
A number alone suffices; assume µM.

Reference set (3 entries):
1) O=c1c2cc(I)ccc2nc(SCc2n[nH]c(=S)o2)n1Cc1ccccc1 :: 31.3
2) N=C(N)c1ccc(-c2ccc(-c3cccs3)s2)s1 :: 2.98
3) C[n+]1c(-c2ccc(/C=N/NC(=O)c3ccc(C(=O)N/N=C/c4ccc(-c5cn6ccccc6[n+]5C)cc4)cc3)cc2)cn2ccccc21 :: 306

Okay, next one:
Q: Bench note: what TGI did COc1cccc2c1C(=O)c1c(O)c3c(c(O)c1C2=O)C[C@@](O)(C(=O)CO)CC3OC1CC(O)C(O)C(C)O1 (stereo partly drawn) show?
Result: 2.39
